Assay Target: human TLR7 (Homo sapiens, UniProt Q9NYK1)
Construct: TLR7 in pUNO vector, blasticidin selection
Sequence (Q9NYK1 27-1049): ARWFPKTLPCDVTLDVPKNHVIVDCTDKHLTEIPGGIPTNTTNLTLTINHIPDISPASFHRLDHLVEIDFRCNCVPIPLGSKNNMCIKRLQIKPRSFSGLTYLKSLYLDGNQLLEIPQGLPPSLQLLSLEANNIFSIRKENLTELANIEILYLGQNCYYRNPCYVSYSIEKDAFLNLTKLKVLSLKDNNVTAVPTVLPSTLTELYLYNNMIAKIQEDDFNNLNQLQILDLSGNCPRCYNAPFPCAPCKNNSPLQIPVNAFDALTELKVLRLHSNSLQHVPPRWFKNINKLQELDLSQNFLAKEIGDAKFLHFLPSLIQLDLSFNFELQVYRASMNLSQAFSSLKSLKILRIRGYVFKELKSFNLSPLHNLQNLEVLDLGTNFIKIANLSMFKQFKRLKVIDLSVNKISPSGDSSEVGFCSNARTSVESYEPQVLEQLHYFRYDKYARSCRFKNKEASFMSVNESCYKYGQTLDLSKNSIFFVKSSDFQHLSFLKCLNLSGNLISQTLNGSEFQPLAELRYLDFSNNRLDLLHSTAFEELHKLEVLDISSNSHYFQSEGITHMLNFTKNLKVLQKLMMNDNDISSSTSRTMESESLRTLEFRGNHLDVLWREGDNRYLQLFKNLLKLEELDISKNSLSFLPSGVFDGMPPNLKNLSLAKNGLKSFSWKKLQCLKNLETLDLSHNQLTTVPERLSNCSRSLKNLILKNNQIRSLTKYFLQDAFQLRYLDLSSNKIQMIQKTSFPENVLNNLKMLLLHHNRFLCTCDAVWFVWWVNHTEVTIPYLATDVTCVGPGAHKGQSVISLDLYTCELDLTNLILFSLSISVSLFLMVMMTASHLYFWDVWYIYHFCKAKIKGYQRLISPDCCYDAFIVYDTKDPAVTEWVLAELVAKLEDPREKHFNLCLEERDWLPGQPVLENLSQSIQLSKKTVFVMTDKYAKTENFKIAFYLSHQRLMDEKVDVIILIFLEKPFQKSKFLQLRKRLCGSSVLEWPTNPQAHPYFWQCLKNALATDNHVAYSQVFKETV
Run Description: Human TLR7 assay (SEAP reporter in HEK293 cells)
Assay Context: SEAP induction in HEK293 cells expressing human TLR7, overnight incubation at 37° C., 0.1% DMSO
pEC50: −log10 of the molar value.
Outcome Measure: pEC50

{"Compound": "CCCCc1nc2c(N)nc3ccccc3c2n1CCCN(Cc1cccc(CC(=O)OC)c1)C(=O)CN1CC(O)C1", "Assay Result": 5.80}
{"Compound": "CCCCc1nc2c(N)nc3ccccc3c2n1CCCN(Cc1ccc(CC(=O)OC)cc1)C(=O)CS(C)(=O)=O", "Assay Result": 6.40}
{"Compound": "CCCCc1nc2c(N)nc3ccccc3c2n1CCCN(Cc1cccc(CC(=O)OC)c1)C(=O)CN1CCCC1", "Assay Result": 7.20}
{"Compound": "CCCCc1nc2c(N)nc3ccccc3c2n1CCCN(Cc1cccc(CC(=O)OC)c1)C(=O)CN1CCCOCC1", "Assay Result": 6.40}
{"Compound": "COCCc1nc2c(N)nc3ccccc3c2n1CCCN(Cc1ccc(CC(=O)OC)cc1)C(=O)CN1CCCC1", "Assay Result": 6.40}
{"Compound": "CCCCc1nc2c(N)nc3ccccc3c2n1CCCN(Cc1cccc(CC(=O)OC)c1)C(=O)CN1CCN(C(C)=O)CC1", "Assay Result": 5.90}
{"Compound": "COCCc1nc2c(N)nc3ccccc3c2n1CCCN(Cc1ccc(CC(=O)OC)cc1)C(=O)CCN1CCCCC1", "Assay Result": 6.80}
{"Compound": "CCOCc1nc2c(N)nc3ccccc3c2n1CCCN(Cc1cccc(CC(=O)OC)c1)C(=O)CN(C)C", "Assay Result": 6.40}
{"Compound": "CCCCc1nc2c(N)nc3ccccc3c2n1CCCNCc1cccc(CC(=O)OC)c1", "Assay Result": 6.40}
{"Compound": "COCCc1nc2c(N)nc3ccccc3c2n1CCCN(Cc1ccc(CC(=O)OC)cc1)C(=O)CN(C)CCOC", "Assay Result": 6.80}
{"Compound": "CCCCc1nc2c(N)nc3ccccc3c2n1CCCN(Cc1cccc(CC(=O)OC)c1)C(=O)CN1CCCCCC1", "Assay Result": 7.10}
{"Compound": "CCCCc1nc2c(N)nc3ccccc3c2n1CCCN(Cc1cccc(CC(=O)OC)c1)C(=O)CN(C)CCOC", "Assay Result": 6.80}
{"Compound": "CCCCc1nc2c(N)nc3ccccc3c2n1CCCN(Cc1cccc(CC(=O)OC)c1)C(=O)CN1CCN(S(C)(=O)=O)CC1", "Assay Result": 6.10}
{"Compound": "CCCCc1nc2c(N)nc3ccccc3c2n1CCCN(Cc1cccc(CC(=O)OC)c1)C(=O)CN1C[C@@H](C)O[C@@H](C)C1", "Assay Result": 6.00}
{"Compound": "CCCCc1nc2c(N)nc3ccccc3c2n1CCCN(CCN(C)C)Cc1ccc(CC(=O)OC)cc1", "Assay Result": 6.60}
{"Compound": "CCCCc1nc2c(N)nc3ccccc3c2n1CCCN(Cc1ccc(CC(=O)OC)cc1)C(=O)CN1CCC(NC(=O)OC(C)(C)C)CC1", "Assay Result": 6.70}
{"Compound": "CCCCc1nc2c(N)nc3ccccc3c2n1CCCN(Cc1ccc(CC(=O)OC)cc1)C(C)=O", "Assay Result": 6.90}
{"Compound": "CCCCc1nc2c(N)nc3ccccc3c2n1CCCN(Cc1ccc(CC(=O)OC)cc1)C(=O)CN1CCC(N(C)C(=O)OC(C)(C)C)CC1", "Assay Result": 6.50}
{"Compound": "CCCCc1nc2c(N)nc3ccccc3c2n1CCCN(Cc1cccc(CC(=O)OC)c1)C(=O)CN1CCN(CCO)CC1", "Assay Result": 6.30}
{"Compound": "COCCc1nc2c(N)nc3ccccc3c2n1CCCN(Cc1ccc(CC(=O)OC)cc1)C(=O)CN(C)CCO", "Assay Result": 5.80}
{"Compound": "CCCCc1nc2c(N)nc3ccccc3c2n1CCCN(Cc1cccc(CC(=O)OC)c1)C(=O)CN(CCC)CCC", "Assay Result": 7.10}
{"Compound": "CCCCc1nc2c(N)nc3ccccc3c2n1CCCN(Cc1ccc(CC(=O)OC)cc1)C(=O)CN1CC[C@@H](O)C1", "Assay Result": 6.60}
{"Compound": "CCCCc1nc2c(N)nc3ccccc3c2n1CCCN(Cc1cccc(CC(=O)OC)c1)C(=O)CN1CCC(O)C1 (centres unmarked)", "Assay Result": 6.40}
{"Compound": "CCCCc1nc2c(N)nc3ccccc3c2n1CCCN(Cc1ccc(CC(=O)OC)cc1)C(=O)CN1CCN(S(=O)(=O)CC)CC1", "Assay Result": 6.60}
{"Compound": "CCCCc1nc2c(N)nc3ccccc3c2n1CCCN(Cc1ccc(CC(=O)OC)cc1)C(=O)CN1CCC(C(=O)OC)CC1", "Assay Result": 6.70}
{"Compound": "CCCCc1nc2c(N)nc3ccccc3c2n1CCCN(Cc1cccc(CC(=O)OC)c1)C(=O)CN(C)CCCC", "Assay Result": 6.90}
{"Compound": "COCCc1nc2c(N)nc3ccccc3c2n1CCCN(Cc1ccc(CC(=O)OC)cc1)C(=O)CN1CCCCC1", "Assay Result": 7.00}
{"Compound": "CCCCc1nc2c(N)nc3ccccc3c2n1CCCN(Cc1ccc(CC(=O)OC)cc1)C(=O)CN1CCN(C(=O)OCC)CC1", "Assay Result": 6.20}
{"Compound": "CCCCc1nc2c(N)nc3ccccc3c2n1CCCN(Cc1cccc(CC(=O)OC)c1)C(=O)CN1CCC(O)CC1", "Assay Result": 6.30}

* * *

Assay Target: human TLR7 (Homo sapiens)
Construct: TLR7 in pUNO vector, blasticidin selection
Run Description: Human TLR7 assay (SEAP reporter in HEK293 cells)
Assay Context: SEAP induction in HEK293 cells expressing human TLR7, overnight incubation at 37° C., 0.1% DMSO
Structures can show the parent of a compound that is named as a salt.
Exam item: assign true (1) to entries whose EC50 is below 200 nM and false (0) to entries at or above 200 nM. Note that a value of exactly 200 nM receives false (0).

{"Molecule": "CCCCc1nc2c(N)nc3ccccc3c2n1CCCN(Cc1cccc(CC(=O)OC)c1)C(=O)CN1CCCN(C(C)=O)CC1", "Assay Target": "human TLR7 (Homo sapiens)", "Cat": "false (0)"}
{"Molecule": "CCCCc1nc2c(N)nc3ccccc3c2n1CCCN(Cc1cccc(CC(=O)OC)c1)C(=O)CN1CCN(CCOC)CC1", "Assay Target": "human TLR7 (Homo sapiens)", "Cat": "true (1)"}
{"Molecule": "CCOCc1nc2c(N)nc3ccccc3c2n1CC1CCN(Cc2cccc(CC(=O)OC)c2)CC1 [Example 5, di-trifluoroacetate salt]", "Assay Target": "human TLR7 (Homo sapiens)", "Cat": "false (0)"}
{"Molecule": "CCCCc1nc2c(N)nc3ccccc3c2n1CCCN(Cc1cccc(CC(=O)OC)c1)C(=O)CN1CCCN(C(=O)NCC)CC1", "Assay Target": "human TLR7 (Homo sapiens)", "Cat": "false (0)"}
{"Molecule": "CCCCc1nc2c(N)nc3ccccc3c2n1CCCN(Cc1ccc(CC(=O)OC)cc1)C(=O)CN1CCCN(C(C)=O)CC1", "Assay Target": "human TLR7 (Homo sapiens)", "Cat": "false (0)"}
{"Molecule": "COCCc1nc2c(N)nc3ccccc3c2n1CCCN(Cc1cccc(CC(=O)OC)c1)C(=O)CN1CCN(CCOC)CC1", "Assay Target": "human TLR7 (Homo sapiens)", "Cat": "false (0)"}
{"Molecule": "CCCCc1nc2c(N)nc3ccccc3c2n1CCCN(Cc1cccc(CC(=O)OC)c1)C(=O)CN(C)C1CCOCC1", "Assay Target": "human TLR7 (Homo sapiens)", "Cat": "true (1)"}
{"Molecule": "CCCCc1nc2c(N)nc3ccccc3c2n1CCCN(CCCN1CCN(C)CC1)Cc1cccc(CC(=O)OC)c1", "Assay Target": "human TLR7 (Homo sapiens)", "Cat": "false (0)"}
{"Molecule": "CCCCc1nc2c(N)nc3ccccc3c2n1CCCN(Cc1ccc(CC(=O)OC)cc1)C(=O)CN(C)C", "Assay Target": "human TLR7 (Homo sapiens)", "Cat": "true (1)"}
{"Molecule": "COCCc1nc2c(N)nc3ccccc3c2n1CCCN(Cc1cccc(CC(=O)OC)c1)C(=O)CN1CCN(C)CC1", "Assay Target": "human TLR7 (Homo sapiens)", "Cat": "false (0)"}
{"Molecule": "CCCCc1nc2c(N)nc3ccccc3c2n1CCCN(Cc1ccc(CC(=O)OC)cc1)C(=O)CN1CCCN(S(C)(=O)=O)CC1", "Assay Target": "human TLR7 (Homo sapiens)", "Cat": "false (0)"}
{"Molecule": "CCCCc1nc2c(N)nc3ccccc3c2n1CCCN(CCCN(C)CC)Cc1cccc(CC(=O)OC)c1", "Assay Target": "human TLR7 (Homo sapiens)", "Cat": "true (1)"}
{"Molecule": "CCCCc1nc2c(N)nc3ccccc3c2n1CCCN(Cc1ccc(CC(=O)OC)cc1)C(=O)CN1CCN(C(C)=O)CC1", "Assay Target": "human TLR7 (Homo sapiens)", "Cat": "false (0)"}
{"Molecule": "CCCCc1nc2c(N)nc3ccccc3c2n1CCCN(Cc1ccc(CC(=O)OC)cc1)C(=O)CN1CCC(CC(=O)OCC)CC1", "Assay Target": "human TLR7 (Homo sapiens)", "Cat": "true (1)"}
{"Molecule": "CCCCc1nc2c(N)nc3ccccc3c2n1CCCN(Cc1cccc(CC(=O)OC)c1)C(=O)CN(C)C", "Assay Target": "human TLR7 (Homo sapiens)", "Cat": "true (1)"}
{"Molecule": "CCCCc1nc2c(N)nc3ccccc3c2n1CCCN(Cc1ccc(CC(=O)OC)cc1)C(=O)CN1CCN(CCOC)CC1", "Assay Target": "human TLR7 (Homo sapiens)", "Cat": "true (1)"}
{"Molecule": "CCCCc1nc2c(N)nc3ccccc3c2n1CCCN(Cc1cccc(CC(=O)OC)c1)C(=O)CN1CCC1", "Assay Target": "human TLR7 (Homo sapiens)", "Cat": "false (0)"}
{"Molecule": "CCCCc1nc2c(N)nc3ccccc3c2n1CCCN(Cc1ccc(CC(=O)OC)cc1)C(=O)CN1CCN(c2ncccn2)CC1", "Assay Target": "human TLR7 (Homo sapiens)", "Cat": "false (0)"}
{"Molecule": "CCCCc1nc2c(N)nc3ccccc3c2n1CCCN(Cc1ccc(CC(=O)OC)cc1)C(=O)CN(C)C1CCN(C(C)=O)CC1", "Assay Target": "human TLR7 (Homo sapiens)", "Cat": "false (0)"}
